- Read-out: TIMP metallopeptidase inhibitor 2 (TIMP2), TIMP2 (gene 7077)
- assay_remarks: BSK_KF3CT_TIMP2: BioMAP Diversity Plus: KF3CT Assay for TIMP metallopeptidase inhibitor 2 (TIMP2) Biomarker Activity (AID 2283071)
- assay_setup: primary human keratinocytes with fibroblasts; actives raise or lower the signal
Activity calls are given as the source filed them. How the source made its calls: active means hit-call score of the fitted dose curve at least 0.9, where 1 is the maximum; inactive means score below 0.9.
Give your call using only these classes: active, inactive

compound=Cc1[nH]c(=O)n(C(C)(C)C)c(=O)c1Cl group_label=inactive

Query string: I would be grateful if you could indicate the recorded call for N#CN .
Result string: inactive

Query string: I would be grateful if you could indicate the recorded call for CC(C)(C)C(O)/C(=C\c1ccc(Cl)cc1Cl)n1cncn1 (configuration not stated) .
Result string: active

Query string: I would be grateful if you could indicate the recorded call for CNC(=O)Oc1cccc(N=CN(C)C)c1 .
Result string: inactive

Query string: I would be grateful if you could indicate the recorded call for OCCOc1ccccc1 .
Result string: inactive

Query string: I would be grateful if you could indicate the recorded call for CCc1ccc(C(=O)NN(C(=O)c2cc(C)cc(C)c2)C(C)(C)C)cc1 .
Result string: inactive

Query string: I would be grateful if you could indicate the recorded call for CCC(C)(C)C(=O)OC1=C(c2ccc(Cl)cc2Cl)C(=O)OC12CCCCC2 .
Result string: active

Query string: I would be grateful if you could indicate the recorded call for COP(=S)(OC)Oc1ccc([N+](=O)[O-])cc1 .
Result string: active

Query string: I would be grateful if you could indicate the recorded call for O=C(NC(=O)c1c(F)cccc1F)Nc1ccc(OC(F)(F)C(F)OC(F)(F)F)c(Cl)c1 (configuration not stated) .
Result string: inactive

Query string: I would be grateful if you could indicate the recorded call for CCOC1Oc2ccc(OS(C)(=O)=O)cc2C1(C)C (configuration not stated) .
Result string: inactive

Query string: I would be grateful if you could indicate the recorded call for CCCN(CCC)c1c([N+](=O)[O-])cc(C(F)(F)F)cc1[N+](=O)[O-] .
Result string: inactive

Query string: I would be grateful if you could indicate the recorded call for CC(C)N(C(=O)COc1nnc(C(F)(F)F)s1)c1ccc(F)cc1 .
Result string: inactive

----------
- Read-out: Interleukin-1 alpha (IL1a), IL1A (gene 3552)
- assay_remarks: BSK_BE3C_IL1a: BioMAP Diversity Plus: BE3C Assay for Interleukin-1 alpha (IL1a) Biomarker Activity (AID 2283016)
- assay_setup: primary human bronchial epithelial cells; actives raise or lower the signal
- Protocol: BSK_BE3C is a cell-based, multiplexed-readout assay that uses bronchial epithelial cell, a human lung primary cell, with measurements taken at 24 hours after chemical dosing in a 96-well plate.BSK_BE3C_IL1a is an assay component measured in the BSK_BE3C assay. It measures IL-1a antibody related to regulation of gene expression using ELISA technology.Data from the assay component BSK_BE3C_IL1a was analyzed into 1 assay endpoint. […]
Active and inactive are the calls of the source. How the source made its calls: active means hit-call score of the fitted dose curve at least 0.9, where 1 is the maximum; inactive means score below 0.9.
Give your call using only these classes: active, inactive

molecule=O=C(Nc1ccccc1)Nc1cnns1 group_label=inactive

Query string: I would be grateful if you could indicate the recorded call for CNC(=O)Oc1ccccc1OC(C)C .
Result string: active

Query string: I would be grateful if you could indicate the recorded call for CC[C@H](C)[C@H]1O[C@]2(C=C[C@@H]1C)C[C@@H]1C[C@@H](C/C=C(\C)[C@@H](O[C@H]3C[C@H](OC)[C@@H](O[C@H]4C[C@H](OC)[C@@H](O)[C@H](C)O4)[C@H](C)O3)[C@@H](C)/C=C/C=C3\CO[C@@H]4[C@H](O)C(C)=C[C@@H](C(=O)O1)[C@]34O)O2 (tested in a mixture with another compound) .
Result string: active

Query string: I would be grateful if you could indicate the recorded call for COP(=O)(OC)OC=C(Cl)Cl .
Result string: inactive

Query string: I would be grateful if you could indicate the recorded call for O=S1OCC2C(CO1)C1(Cl)C(Cl)=C(Cl)C2(Cl)C1(Cl)Cl (stereo not given) .
Result string: active

These data points were gathered from PubChem BioAssay (EPA / NIEHS).
